Target: human liver glycogen phosphorylase a (HLGPa) (Homo sapiens)
Construct: creating a full-length cDNA fused at the 5′ end to codons for methionine-glycine-alanine-histidine; 6xHis tag (leader Met-Gly-Ala-His6-Gly-Gly) (N); made in house; host or cells: E. coli (bacterial expression plasmid pTXK1007LTev)
Sequence (P06737 2-847 limits assumed): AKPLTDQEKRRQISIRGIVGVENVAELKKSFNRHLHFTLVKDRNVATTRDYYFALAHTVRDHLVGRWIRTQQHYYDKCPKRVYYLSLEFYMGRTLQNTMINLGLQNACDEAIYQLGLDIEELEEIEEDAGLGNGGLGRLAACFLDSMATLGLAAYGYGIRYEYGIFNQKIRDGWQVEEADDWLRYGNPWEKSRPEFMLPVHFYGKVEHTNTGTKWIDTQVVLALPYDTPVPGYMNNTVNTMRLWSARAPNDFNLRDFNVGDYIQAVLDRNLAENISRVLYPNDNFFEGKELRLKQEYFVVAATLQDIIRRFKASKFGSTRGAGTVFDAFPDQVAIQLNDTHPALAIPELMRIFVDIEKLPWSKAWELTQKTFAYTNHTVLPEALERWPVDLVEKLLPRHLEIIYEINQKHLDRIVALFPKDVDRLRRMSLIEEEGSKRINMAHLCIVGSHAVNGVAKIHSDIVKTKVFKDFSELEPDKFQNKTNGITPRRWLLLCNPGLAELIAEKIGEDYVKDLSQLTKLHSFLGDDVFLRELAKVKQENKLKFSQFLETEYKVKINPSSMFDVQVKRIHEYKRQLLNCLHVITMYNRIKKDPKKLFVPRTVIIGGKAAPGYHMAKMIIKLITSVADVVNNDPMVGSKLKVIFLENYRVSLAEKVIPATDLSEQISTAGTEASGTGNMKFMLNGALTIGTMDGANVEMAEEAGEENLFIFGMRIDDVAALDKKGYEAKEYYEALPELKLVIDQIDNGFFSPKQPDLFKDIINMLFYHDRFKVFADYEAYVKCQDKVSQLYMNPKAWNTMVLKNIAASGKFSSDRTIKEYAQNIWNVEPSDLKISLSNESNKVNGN
Test: Human liver glycogen phosphorylase a enzymatic activity assay (coupled, fluorescent resorufin readout, with and without 10 mM glucose)
Type: biochemical
Settings: human liver glycogen phosphorylase a enzymatic activity assay
Below, each of the compounds is paired with its reported IC50 value.
attribute_measured: IC50 (nM)

{"compound": "Cc1cc(C)c(NC(=O)Nc2cc(-c3cc(F)cc(F)c3)ccc2C(=O)N[C@H](C(=O)O)C2CCCCC2)c(C)c1 [Example 526]", "unit_label": "nM", "experimental_result": 5}
{"compound": "Cc1cc(C)c(NC(=O)Nc2cc(Cl)ccc2C(=O)N[C@H](C(=O)O)C2CCCCC2)c(C)c1 [Example 179]", "unit_label": "nM", "experimental_result": 35}
{"compound": "COc1ccc(-c2cc(NC(=O)Nc3c(C)cc(C)cc3C)c(C(=O)N3CCC[C@H]3C(=O)O)s2)cc1 [Example 447]", "unit_label": "nM", "experimental_result": 26}
{"compound": "Cc1cc(CC2CC2)cc(C)c1NC(=O)Nc1cc(-c2ccc(F)c(F)c2)ccc1C(=O)N[C@H](C(=O)O)[C@@H](C)OC(C)(C)C [Example 483]", "unit_label": "nM", "experimental_result": 1}
{"compound": "COc1ccccc1-c1ccc(C(=O)N[C@H](C(=O)O)C2CCCCC2)c(NC(=O)Nc2c(C)cc(C)cc2C)c1 [Example 523]", "unit_label": "nM", "experimental_result": 8}
{"compound": "Cc1cccc(C)c1NC(=O)Nc1cc2ccccc2cc1C(=O)N[C@@H](Cc1ccccc1)C(=O)O [Example 51]", "unit_label": "nM", "experimental_result": 680}
{"compound": "Cc1cccc(C)c1NC(=O)Nc1cc(F)c(F)cc1C(=O)N[C@@H](CC1CCCCC1)C(=O)O [Example 118]", "unit_label": "nM", "experimental_result": 15700}
{"compound": "Cc1cc(C)c(NC(=O)Nc2cc3ccccc3cc2C(=O)N[C@@H](CCNC(=O)OC(C)(C)C)C(=O)O)c(C)c1 [Example 516]", "unit_label": "nM", "experimental_result": 89}
{"compound": "Cc1cccc(Cl)c1NC(=O)Nc1cc2ccccc2cc1C(=O)N[C@@H](CC(C)C)C(=O)O [Example 39]", "unit_label": "nM", "experimental_result": 600}
{"compound": "COc1ccc(-c2cc(NC(=O)Nc3c(C)cc(C)cc3C)c(C(=O)NC3(C(=O)O)CCC3)s2)cc1 [Example 450]", "unit_label": "nM", "experimental_result": 250}
